measure-name: melting point

Use these answered entries as a reference point.
-- ask Which melting point value is on record for CC(C)(C)OC(=O)Nc1ccc(C#Cc2ccc(OC(F)(F)F)cc2)cc1NC(=O)CC(=O)c1cccc(C#N)c1 ?
-- reply 152 to 154 °C

-- ask Which measured melting point value corresponds to CCOC(=O)c1cccn2cc(C)nc12 ?
-- reply 62 to 64 °C

-- ask What does the record list as melting point for O=C(CO)c1ccccc1F ?
-- reply 51 to 54 °C

Continuing:
-- ask Form field: reported melting point of CCc1cnc(N)c2ccccc12
-- reply 84 to 85 °C

-- ask Give the measured melting point of COc1cc2c(cc1OC)CCC(C(=O)NO)=C2 .
-- reply 179 to 180 °C

-- ask Which melting point is listed for COc1cccc(CCC(=O)c2c[nH]cn2)c1OC ?
-- reply 120 to 125 °C

-- ask Can you share its melting point? I mean this compound: Cc1ccc2oc(C=Cc3ccc(C(=O)O)cc3)cc(=O)c2c1
-- reply 308 to 312 °C

-- ask What melting point value was documented for this compound, O=C(O)c1ccc2c(c1)C(=O)NC(C(Cl)(Cl)Cl)N2 (configuration not stated) ?
-- reply > 280 °C

-- ask // melting point lookup, key: NC(=NCC(F)(F)F)Nc1cncc(Cl)n1
-- reply 139 to 140 °C

* * *

// melting point lookup, one value per entry

-- ask # query: melting point of entry COc1cc(C=C(C#N)C(N)=O)cc(OC)c1OC
-- reply 128 to 130 °C

-- ask Return reported melting point; argument: OCc1c(C(F)(F)F)nn2ccc3c(c12)CCO3
-- reply 151 to 153 °C

-- ask Using the record for Cc1cc2ccccn2c1C(=O)c1ccc(O)c(Br)c1 , report its melting point.
-- reply 216 to 217 °C

-- ask I'd like to know its melting point. The compound in question is O=C(NCC1CC1)N1CC(Oc2cccc(C(F)(F)F)c2)C1
-- reply 132 to 133 °C

-- ask Can you share its melting point? I mean this compound: CN(C)CCNc1ccc(NCCN(CCO)CCO)c2c1C(=O)c1c(O)ccc(O)c1C2=O
-- reply 204 to 205 °C

-- ask Which melting point value is on record for N#CC1=C(c2ccccc2)Nc2n[nH]cc2C1c1ccccc1C#N (stereo unspecified) ?
-- reply 148 °C

Others:
-- ask Recorded melting point for C=C1C(O)CC(OC(C)=O)C2(C)C1CC1(C(C)(C)O)CC(O)C(C)=C1C(OC(=O)c1ccccc1)C2OC(C)=O (stereo unspecified) , please?
-- reply 200 to 201 °C

-- ask For the compound Cc1nc2sc(Br)cc2c(=O)n1-c1ccccc1Cl , what melting point is on record?
-- reply 164 to 166 °C

-- ask Name the recorded melting point for CCOCc1nc2c(N)nc3ccccc3c2n1CC1(NC(=O)OCC)CCCCC1 .
-- reply 95 to 100 °C

-- ask Item under review: CC(C)(C)OC(=O)N1CCN2C(=O)OC(Cc3ccccc3)(Cc3ccccc3)C2C1 (stereo unspecified) . Reported melting point?
-- reply 188 to 189 °C

* * *

// reported melting point for each item listed

-- ask If you can, please state the reported melting point value of COC(=O)c1ccccc1S(=O)(=O)Nn1cnn(-c2nc(OC)cc(OC)n2)c1=O .
-- reply 192 °C

-- ask # input compound: COCCCc1ccc(CNC(=O)[C@@H](COC)NC(C)=O)cc1 ; wanted: its melting point
-- reply 105 to 107 °C

Continuing:
-- ask # lookup: melting point of Cc1c(Br)sc(N2C(=O)c3ccccc3C2=O)c1C(=O)c1ccc(Cl)cc1
-- reply 194 to 195 °C

-- ask # melting point lookup, item CCn1cnc2c(cnc3c2cnn3CC)c1=O
-- reply 167 to 169 °C

* * *

In this section, each of the compounds is paired with its reported melting point.

-- ask Which melting point value is on record for COc1cc(OC)c2c(c1)S(=O)(=O)NC2=O ?
-- reply 258 °C

-- ask # query: melting point of entry CNC(=O)N(C)c1nnc(SCc2cccc(F)c2)s1
-- reply 112 to 116 °C

-- ask Given the entry CCc1nn(Cc2noc(O)n2)c(CC)c1Oc1cc(Cl)cc(Cl)c1 , report its measured melting point.
-- reply 94 to 96 °C

-- ask What value of measured melting point is listed for CCN1CNS(=O)(=O)c2sc(Cl)cc21 ?
-- reply 119 to 120 °C

-- ask Returns the measured melting point for the input compound. Input: O=C(Nc1ccc(-c2ccccc2)s1)c1ccccc1
-- reply 202 to 203 °C

From here, focus on the item given below.
-- ask Quick one: melting point for Cc1ccc(Cc2cnc(NCCCCc3cc(CN(C)C)ccn3)[nH]c2=O)cn1 ?
-- reply 135 to 137 °C

* * *

measure-name: melting point

-- ask Which value of melting point has been reported for CC(=O)Nc1ccc(Cl)cc1S(=O)(=O)CC#N in the records?
-- reply 174 °C

-- ask What melting point value was documented for this compound, COc1cc2c(Nc3ccc(Oc4ccccc4OC)cc3)c(C#N)cnc2cc1F ?
-- reply 146 to 150 °C

-- ask Which melting point value is on record for O=C(O)CN1C(=O)C(=Cc2ccc(OCc3ccccc3)c(OCc3ccccc3)c2)SC1=S ?
-- reply 235 to 238 °C

Further cases:
-- ask Please report the recorded melting point for Cc1cc(COC2CCCO2)nc(N)n1 (stereo not drawn) .
-- reply 109 to 110 °C

* * *

Listing of recorded melting point by entry.

Observe how each entry below is paired with its result.
-- ask What value of melting point has been recorded for this entry: COCc1cc(-c2c(S(C)(=O)=O)ccc(C(=O)C3C(=O)CCCC3=O)c2Cl)no1
-- reply 39 to 40 °C

-- ask Which measured melting point value corresponds to Cc1nnc2n1-c1ccc(Cl)cc1C(N1CCCC1)=NC2 ?
-- reply 222 to 225 °C

-- ask What value of melting point has been reported for the following compound? NC(=O)C1CCc2cc(C3CCCCCC3)c(Cl)cc21 (stereo unspecified)
-- reply 170 to 171 °C

-- ask Value lookup for melting point; key = CCCCCCCCCCCCCCCCCC(=O)N[C@@H](C)C(=O)O
-- reply 102 °C

-- ask Give the measured melting point of CN(C)C(=O)Sc1ccccc1C#N .
-- reply 70 °C

More entries:
-- ask Quick one: melting point of Cc1ccc(C(=O)Nc2ccccc2)cc1[N+](=O)[O-] ?
-- reply 147 to 148 °C

-- ask Need melting point, item CCC(=O)c1cc(Cl)c(OC)cc1OC
-- reply 115 °C

-- ask Would you kindly share the measured melting point for OCCC(CCO)c1ccncc1 ?
-- reply 66 to 68 °C

-- ask Which melting point value is on record for O=C(OCc1ccccc1)N1CCc2c(sc3nc(CN4C(=O)CCC4=O)c(Cl)c(-c4ccc(OCC(F)(F)F)cc4)c23)C1 ?
-- reply 190 to 191 °C

-- ask Which value of melting point has been reported for CCCCCCCCCCCCn1nnc(CCC(=O)Nc2ccc(F)cc2F)n1 in the records?
-- reply 86 to 87 °C

-- ask Would you kindly share the measured melting point for Clc1cccc(C2=NOCCS2)c1 ?
-- reply 65 °C

* * *

measure-name: melting point

Completed entries (count: 4):
-- ask melting point lookup needed for N#Cc1c(N)[nH]c(Br)c1C#N , thanks.
-- reply > 210 °C

-- ask # lookup: melting point of O=c1ccn(-c2ccc(Cl)cc2)nc1-c1ccnn1-c1ccccc1
-- reply 219 to 220 °C

-- ask Given the molecule CCN(c1cc2c3c(c1)CCCC3(C)CCC2)c1ncc(C(=O)O)cn1 , what is its reported melting point?
-- reply 257 to 258 °C

-- ask Which value of melting point has been reported for CC(C)(C)c1cc(-c2nn(CCN3CCCC3=O)c3ncccc23)cc(C(C)(C)C)c1O in the records?
-- reply 148 to 150 °C

---
-- ask melting point lookup needed for CCOC(=O)c1cccc(-c2ccc3ccccc3c2)c1 , thanks.
-- reply 101 to 103 °C

-- ask For the molecule shown here, O=C1c2ccccc2N(c2ccccc2)CN1O , give the reported melting point.
-- reply 156 to 160 °C

-- ask melting point for CN1C(=O)C(C(=O)Nc2ccc(OC(F)(F)F)c(Cl)c2)C(=O)N(C)C1=O ?
-- reply 160 °C

-- ask Any idea what its melting point is? The molecule is CC(C)C[C@H](NC(=O)OCc1ccco1)C(=O)N[C@@H](Cc1ccccc1)C(=O)CSCc1ccco1
-- reply 115 to 118 °C

-- ask I would be grateful if you could share the reported melting point for CS(=O)c1ccc(-n2cnc(-c3ccc(F)cc3)c2-c2ccncc2)cc1 (stereo not given) .
-- reply 202 to 203 °C

-- ask I'd like to know its melting point. The molecule in question is COc1ccc(C(=O)/C=C/c2ccc3c(c2)OCO3)c(OC)c1
-- reply 137 °C

* * *

measure-name: melting point

Worked set:
-- ask What value of melting point has been recorded for this entry: CSc1nc(Cl)c(C#N)c(Cl)n1
-- reply 107 °C

-- ask May I ask what melting point has been recorded for COc1ccc(C=N[C@H]2COc3c(F)ccc(OC)c3C2)cc1 ?
-- reply 96.8 to 97.3 °C

-- ask // returns reported melting point for input O=P1(Oc2ccccc2)CCCC(CI)O1 (stereo not given)
-- reply 128 °C

Others:
-- ask Can you look up the measured melting point of Cc1ccccc1NC(=O)CN1CC2CCC(C1)N2S(=O)(=O)c1cccc(C#N)c1 for me?
-- reply 166 to 168 °C

-- ask Query (molecule): CCCOc1ccc(S(=O)(=O)CC)cc1-c1nc2c(CC)nn(C[C@@H]3CCCN3C(=O)OC(C)(C)C)c2c(=O)[nH]1 ; field requested: melting point
-- reply 170 to 172 °C

-- ask Suppose we examine the molecule CCN(C)CCc1[nH]c2ccccc2c1CSc1ccccc1 ; what melting point value has been reported?
-- reply 77 to 79 °C

-- ask Dear colleague, I am looking for the recorded melting point of the following molecule: Cc1cc(Cl)ccc1N=CN(C)SN(C)C=Nc1ccc(Cl)cc1C
-- reply 124 to 126 °C

-- ask State the recorded melting point for this entry: CC(C)(C)OC(=O)c1ccc(C#Cc2cnc3nc(NC(=O)C(C)(C)C)nc(O)c3c2)cc1
-- reply > 250 °C

-- ask Quick check: melting point of CC1(C)[C@H](C=C(Cl)C(F)(F)F)[C@@H]1C(=O)NCc1cccc2c1CCCc1ccccc1-2 (relative stereo) ?
-- reply 65 to 70 °C
